Every entry's value here was drawn from the supplement of paper PMC7877785.

- methodDescription: self-splicing fitness, log relative to wild type (ln ratio); higher = more splicing; Tetrahymena group I intron in knt gene, E. coli kanamycin selection, DiMSum; sequences stand for … in CUCUCU…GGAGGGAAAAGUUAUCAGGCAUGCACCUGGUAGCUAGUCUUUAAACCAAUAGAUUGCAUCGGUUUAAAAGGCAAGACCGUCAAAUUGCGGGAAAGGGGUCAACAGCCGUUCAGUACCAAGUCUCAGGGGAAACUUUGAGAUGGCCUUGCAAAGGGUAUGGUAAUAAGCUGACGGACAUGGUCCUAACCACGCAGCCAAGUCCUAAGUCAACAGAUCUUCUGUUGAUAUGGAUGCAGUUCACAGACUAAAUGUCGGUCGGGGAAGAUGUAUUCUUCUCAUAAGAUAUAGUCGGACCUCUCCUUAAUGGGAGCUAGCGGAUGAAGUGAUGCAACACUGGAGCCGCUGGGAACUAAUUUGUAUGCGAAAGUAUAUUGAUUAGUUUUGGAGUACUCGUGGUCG;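 also: selection with 25 µg/mL kanamycin versus none on LB agar overnight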
- setupConditions: 37 °C
For each entry below, report its self-splicing fitness (ln) value.
Hey, just send me the number, nothing else.

### Prompt Any idea what self-splicing fitness (ln) was measured for AGGCAGCAAUAUUACGGUUG ?
### Response -1.46

### Prompt Input AUCUAGCAAUAUUACGAUGU
### Response -0.0281

### Prompt Input CAAUAGCAAUAUUACGGGCA
### Response -2.89

### Prompt Input AGGGAGCAAUAUUACGACCG
### Response -0.586

### Prompt Input UCCCAGCAAUAUUACGCGAU
### Response -2.64

### Prompt Input GAGAAGCAAUAUUACGCUUA
### Response -1.24

### Prompt Input UAUGAGCAAUAUUACGGUCG
### Response -1.19

### Prompt Input UCAGAGCAAUAUUACGAGCG
### Response -1.23

### Prompt Input CGUAAGCAAUAUUACGCUGC
### Response -2.3

### Prompt Input ACUAAGCAAUAUUACGCCGC
### Response -1.86

### Prompt Input UCCUAGCAAUAUUACGUCUA
### Response -2.69

### Prompt Input AACUAGCAAUAUUACGGUGG
### Response -0.926

### Prompt Input CCAUAGCAAUAUUACGACGG
### Response -1.67

### Prompt Input AGGCAGCAAUAUUACGGAUG
### Response -2.58

### Prompt Input ACUAAGCAAUAUUACGGCUC
### Response 0.329

### Prompt Input GGGUAGCAAUAUUACGAGGC
### Response -2.19

----------
- methodDescription: self-splicing fitness, log relative to wild type (ln ratio); higher = more splicing; Tetrahymena group I intron in knt gene, E. coli kanamycin selection, DiMSum; sequences stand for … in CUCUCU…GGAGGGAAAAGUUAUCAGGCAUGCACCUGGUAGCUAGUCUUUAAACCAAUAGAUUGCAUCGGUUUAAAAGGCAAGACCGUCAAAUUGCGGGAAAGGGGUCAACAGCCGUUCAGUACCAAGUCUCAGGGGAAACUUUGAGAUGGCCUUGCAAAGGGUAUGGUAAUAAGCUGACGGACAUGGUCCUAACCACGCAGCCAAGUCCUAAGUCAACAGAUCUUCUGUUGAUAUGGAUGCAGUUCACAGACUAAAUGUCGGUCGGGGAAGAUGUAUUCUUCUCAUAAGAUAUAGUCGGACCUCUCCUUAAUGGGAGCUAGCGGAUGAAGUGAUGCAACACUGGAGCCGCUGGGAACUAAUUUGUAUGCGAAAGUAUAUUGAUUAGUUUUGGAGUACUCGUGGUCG
- setupConditions: 30 °C
testReadout: self-splicing fitness (ln)
Hey, just send me the number, nothing else.

### Prompt Any idea what self-splicing fitness (ln) was measured for GCGUAGCAAUAUUACGGGGG ?
### Response -3.87

### Prompt Input CACGAGCAAUAUUACGUCUG
### Response -2.32

### Prompt Input CACAAGCAAUAUUACGUGAA
### Response -4.27

### Prompt Input CCUGAGCAAUAUUACGCACG
### Response -3.16

### Prompt Input CUCGAGCAAUAUUACGUGGU
### Response -3.41

### Prompt Input GCGAAGCAAUAUUACGGGUU
### Response -2.88

### Prompt Input ACUCAGCAAUAUUACGCAAU
### Response -1.37

### Prompt Input AAGUAGCAAUAUUACGGGAC
### Response -2.43

### Prompt Input AUUAAGCAAUAUUACGUGAA
### Response -1.55

### Prompt Input GGCCAGCAAUAUUACGCCUA
### Response -1.05

### Prompt Input UGGGAGCAAUAUUACGUGCU
### Response -2.65

### Prompt Input CUAUAGCAAUAUUACGACAC
### Response -2.95

### Prompt Input UUAUAGCAAUAUUACGACAG
### Response -1.09

### Prompt Input AUCAAGCAAUAUUACGGCGC
### Response -1.01

### Prompt Input AAAGAGCAAUAUUACGCGAC
### Response -2.55

### Prompt Input GGUUAGCAAUAUUACGUCUA
### Response -0.569
